Source of measurements: patent EP2435064B1

I'd be grateful if you could share measured Ki for these entries.
biological target: TMPRSS2 (Homo sapiens, UniProt O15393); construct: TMPRSS2 (katalytische Domäne exprimiert in E. coli); made in house; host or cells: E. coli; assay: Enzyme kinetic determination of inhibition of TMPRSS2 (Ki, Dixon method, chromogenic substrate d-Cyclohexylalanin-Gly-Arg-p-Nitroanilin); type: biochemical; details: TMPRSS2 catalytic domain expressed in E. coli, Tris pH 8.0, room temperature
Sequence (O15393 256-492 limits assumed): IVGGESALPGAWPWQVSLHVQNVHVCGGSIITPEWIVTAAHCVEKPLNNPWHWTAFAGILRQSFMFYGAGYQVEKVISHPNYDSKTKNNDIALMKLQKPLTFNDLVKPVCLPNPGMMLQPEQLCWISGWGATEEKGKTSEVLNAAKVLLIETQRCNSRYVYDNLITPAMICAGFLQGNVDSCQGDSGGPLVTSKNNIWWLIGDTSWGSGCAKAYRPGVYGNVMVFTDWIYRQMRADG
Numbers only, in nM.

Worked set:
[
  {
    "SMILES_DATA": "N=C(N)NCCC[C@@H](NS(=O)(=O)Cc1ccccc1)C(=O)N1CCC[C@H]1C(=O)NCc1ccc(C(=N)N)cc1",
    "Ki / nM": 3
  },
  {
    "SMILES_DATA": "N=C(N)c1ccc(CNC(=O)[C@@H]2CCCN2C(=O)[C@@H](CC2CCCCC2)NS(=O)(=O)Cc2ccccc2)cc1",
    "Ki / nM": 81
  },
  {
    "SMILES_DATA": "CCCCCCCCCC(=O)NCCCC[C@H](NC(=O)[C@@H](CCCNC(=N)N)NS(=O)(=O)Cc1ccccc1)C(=O)NCc1ccc(C(=N)N)cc1",
    "Ki / nM": 8
  }
]

So what does the record say about Ki for `N=C(N)c1ccc(CNC(=O)[C@H](CCCCNC(=O)OCc2ccccc2)NC(=O)[C@@H](CC2CCCCC2)NS(=O)(=O)Cc2ccccc2)cc1` ?
84
